# Test system: Paeniclostridium sordellii
# Method Description: Antibacterial activity against Clostridium sordellii by CLSI M11-A6 agar dilution method
# Type: functional
# Condition Details: Paraclostridium sordellii
Property: MIC90 (µg/mL)

- Smiles Repr: "CCCCCCCCCCNCCN[C@@]1(C)C[C@H](O[C@H]2[C@H](Oc3c4cc5cc3Oc3ccc(cc3Cl)[C@@H](O)[C@@H](NC(=O)[C@@H](CC(C)C)NC)C(=O)N[C@@H](CC(N)=O)C(=O)N[C@H]5C(=O)N[C@H]3C(=O)N[C@H](C(=O)N[C@H](C(=O)O)c5cc(O)c(CNCP(=O)(O)O)c(O)c5-c5cc3ccc5O)[C@H](O)c3ccc(c(Cl)c3)O4)O[C@H](CO)[C@@H](O)[C@@H]2O)O[C@@H](C)[C@H]1O"
  Target Or Test System: "Paeniclostridium sordellii"
  Number: 0.25
- Smiles Repr: "Cc1ncc([N+](=O)[O-])n1CCO"
  Target Or Test System: "Paeniclostridium sordellii"
  Number: 1
